Source: paper PMC6792352

- PROTOCOL NOTES: in vitro
- CONDITION NOTES: rat, gh3-tre-luc cells, AC50 (uM) modified / 1000, Tox21_110001=Tox21_112754; viability, 1 nM T3 present, 24 h
OBSERVATION TYPE: CC50 at 24 h (µM)
Answers are plain numbers, in µM.

Input line: # lookup: CC50 at 24 h of CCC/C=C/C=C/C(=O)O[C@H]1/C(=C/C(=O)OC)C[C@H]2C[C@H]([C@@H](C)O)OC(=O)C[C@H](O)C[C@@H]3C[C@H](OC(C)=O)C(C)(C)[C@](O)(C[C@@H]4C/C(=C/C(=O)OC)C[C@H](/C=C/C(C)(C)[C@]1(O)O2)O4)O3
Output line: 9.94
